property_measured: melting point

Record request: melting point value, item CCc1c(C(=O)C(N)=O)c2c(OCC(=O)O)nc(-c3ccccc3)cn2c1Cc1ccccc1
233 to 234 °C

Record request: melting point value, item Cc1cn2c(Cc3ccc(F)cc3)c(C3CC3)c(C(=O)C(N)=O)c2c(OCC(=O)O)n1
185 to 187 °C

Record request: melting point value, item CCc1c(C(=O)C(N)=O)c2c(OCC(=O)O)nc(C)cn2c1Cc1ccc(C)s1
216.5 to 218 °C

Record request: melting point value, item Cc1cn2c(Cc3ccccc3)c(C3CC3)c(C(=O)C(N)=O)c2c(OCC(=O)O)n1
194.5 to 196 °C

Record request: melting point value, item CCc1c(C(=O)C(N)=O)c2c(OCC(=O)OC)nc(C)cn2c1Cc1ccc(F)cc1
167 to 168 °C

Record request: melting point value, item CCc1c(C(=O)C(N)=O)c2c(OCC(=O)OC)nc(C)cn2c1Cc1ccccc1-c1ccc(F)cc1
147 to 149 °C

Record request: melting point value, item CCc1c(C(=O)C(N)=O)c2c(OCC(=O)O)nc(C3CCCCC3)cn2c1Cc1ccccc1-c1ccccc1
200 to 201.5 °C

Record request: melting point value, item CCc1c(C(=O)C(N)=O)c2c(OCC(=O)O)nc(C)cn2c1Cc1ccccc1
207 to 208 °C

Hey, just so you know, these numbers are from patent US6407104B1.
